Target: Estrogen receptor (Homo sapiens)
Test: ERF_US_NR_hESR1: Eurofins (ERF) Nuclear Receptor (NR) Cell Based Protein-Protein Interaction LeadHunter Assay for human Estrogen Receptor alpha (ERa) Agonism
Description: ERF_US_NR_hESR1 is a cell-based, single-readout assay that uses extracted gene-proteins in a cell-line assay. Measurements were taken 5 hours after chemical dosing in a 384-well plate. See ERalpha Human Estrogen NHR Cell Based Agonist Protein-Protein Interaction Assay, DiscoverX.ERF_US_NR_hESR1 is an assay component calculated from the ERF_US_NR_hESR1 assay. […]
Inconclusive results are not listed. The source made the active and inactive calls. How the source made its calls: active means hit-call score of the fitted dose curve at least 0.9, where 1 is the maximum; inconclusive means response in the unintended direction; inactive means score below 0.9.
Field 'call' accepts 1 (active), 0 (inactive)

Would you please look over these solved cases?
NC(=O)C(F)(F)C(F)(F)C(F)(F)C(F)(F)C(F)(F)C(F)(F)C(F)(F)F	0
N=C(N)C(F)(F)C(F)(F)C(F)(F)C(F)(F)C(F)(F)C(F)(F)C(F)(F)F	0
OCC(F)(F)C(F)(F)C(F)(F)C(F)(F)C(F)(F)C(F)(F)C(F)(F)C(F)(F)CO	1

Then this molecule:
**Q:** Hello, I am checking results. What call was entered for FC(F)(F)C(F)(F)C(F)(F)C(F)(F)C(F)(F)C(F)(F)I ?
**A:** 0
